- assayed-target: Interleukin-8 (Homo sapiens)
- run-description: inhibitors of NFkB activation in CF airway cells, SAR follow-up, KKLEB cells, panel, IL8 HTRF, NFkB-GFP (AID 651592);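 further: immortalized cystic fibrosis airway epithelial KKLEB cells with an NF-kB GFP reporter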
- conditions: PAF/TNFa-induced NFkB-GFP / IL8 HTRF, IL8, PAF-induced, run 3
measurement-name: IC50 (µM)

{"columns": ["smiles-entry", "assayed-target", "measurement-name", "measured"],
 "data": [
  ["Cc1ccc(CNCc2cc3c(C(C)(C)C)nn(-c4ccccc4)c3[nH]c2=O)cc1", "Interleukin-8 (Homo sapiens)", "IC50", 14.6]
]}

I: O=C(Nc1ccc(N2CCN(C(=O)c3ccccc3)CC2)cc1)c1cccc(Br)c1
II: O=C(Nc1ccc(N2CCN(C(=O)c3ccccc3Cl)CC2)cc1)c1cncc(Br)c1
Endpoint returns the identifier whose IC50 is numerically larger, either I or II . Lab log: write the label of the selected item as the result.
I

1: CCOc1ccc(NCc2cc3c(C(C)(C)C)nn(-c4ccccc4)c3[nH]c2=O)cc1
2: CCOc1ccc(NCc2cc3c(C)nn(-c4ccccc4)c3[nH]c2=O)cc1
Hi there, can you help? I need to know whether 1 or 2 has lower measured IC50. Write down the label of the entry you select.
1
(1: 3.37 µM, 2: 14.1 µM)

###

- System: IL8
- run-description: inhibitors of NFkB activation in CF airway cells, SAR follow-up, KKLEB cells, panel, IL8 HTRF, NFkB-GFP (AID 651592)
- conditions: PAF/TNFa-induced NFkB-GFP / IL8 HTRF, TNFa-induced, mean of runs, mean IC50 across panel replicates
measurement-name: IC50 (µM)

A: O=C(Nc1ccc(N2CCN(C(=O)c3ccccc3Cl)CC2)cc1)c1cncc(Br)c1
B: CCOc1ccc(NCc2cc3c(-c4ccc(F)cc4)nn(-c4ccccc4)c3[nH]c2=O)cc1
Quick check, higher IC50 between A and B ? // output: label of the selected item
B
(B: 57.5 µM, A: 16.1 µM)

###

- run-description: inhibitors of NFkB activation in CF airway cells, SAR follow-up, KKLEB cells, panel, IL8 HTRF, NFkB-GFP (AID 651592)
- conditions: PAF/TNFa-induced NFkB-GFP / IL8 HTRF, CF-PAF assay, run 2
measurement-name: IC50 (µM)

P: CCOc1ccc(NCc2cc3c(C(C)(C)C)nn(-c4ccccc4)c3[nH]c2=O)cc1
Q: O=C(Nc1ccc(N2CCN(C(=O)c3ccccc3Cl)CC2)cc1)c1cncc(Br)c1
R: O=C(Nc1ccc(N2CCN(C(=O)c3ccccc3)CC2)cc1)c1ccccc1
S: O=C(Nc1ccc(N2CCN(C(=O)c3ccccc3F)CC2)cc1)c1ccccc1
Using the recorded IC50, list the entries above from smallest to largest. Give the order by naming the labels one after another as requested.
Q, S, P, R

###

- run-description: inhibitors of NFkB activation in CF airway cells, SAR follow-up, KKLEB cells, panel, IL8 HTRF, NFkB-GFP (AID 651592)
- conditions: PAF/TNFa-induced NFkB-GFP / IL8 HTRF, CF-PAF assay, run 5
measurement-name: IC50

{"columns": ["smiles-entry", "IC50"],
 "data": [
  ["CCOc1ccc(NCc2cc3c(C)nn(-c4ccccc4)c3[nH]c2=O)cc1", "10.5 µM"],
  ["O=C(Nc1ccc(N2CCN(C(=O)c3ccccc3F)CC2)cc1)c1ccccc1", "> 66 µM"],
  ["O=C(Nc1ccc(N2CCN(C(=O)c3ccccc3)CC2)cc1)c1cc(Br)cc(Br)c1", "> 66 µM"],
  ["O=C(Nc1ccc(N2CCN(C(=O)c3ccc(F)cc3)CC2)cc1)c1cccc(Br)c1", "> 66 µM"],
  ["O=C(Nc1ccc(N2CCN(C(=O)c3ccccc3)CC2)cc1)c1ccccn1", "> 66 µM"]
]}

Any idea what its IC50 is? The molecule is O=C(Nc1ccc(N2CCN(C(=O)c3ccc(F)cc3)CC2)cc1)c1cc(Br)cc(Br)c1
> 66 µM

Now this one: O=C(Nc1ccc(N2CCN(C(=O)c3ccccc3)CC2)cc1)c1cccc(Br)c1
23.1 µM

Same lookup for O=C(Nc1ccc(N2CCN(C(=O)c3ccc(F)cc3)CC2)cc1)c1cncc(Br)c1 , please.
3.07 µM

###

Listed below: pIC50 values for each entry.
- assayed-target: UniProt P10145
- run-description: inhibitors of NFkB activation in CF airway cells, SAR follow-up, KKLEB cells, panel, IL8 HTRF, NFkB-GFP (AID 651592)
- conditions: PAF/TNFa-induced NFkB-GFP / IL8 HTRF, IL8, PAF-induced, run 5
pIC50: −log10 of the molar value.

Past entries and their recorded results:
{"columns": ["smiles-entry", "pIC50"],
 "data": [
  ["O=C(Nc1ccc(N2CCN(C(=O)c3ccccc3Cl)CC2)cc1)c1ccccc1", "> 5.00"],
  ["CCOc1ccc(NCc2cc3c(-c4ccc(F)cc4)nn(-c4ccccc4)c3[nH]c2=O)cc1", 6.61],
  ["O=C(Nc1ccc(N2CCN(C(=O)c3ccccc3)CC2)cc1)c1ccccn1", "< 4.18"],
  ["O=C(Nc1ccc(N2CCN(C(=O)c3ccc(F)cc3)CC2)cc1)c1cccnc1", "< 4.18"]
]}

We now examine a further compound.
I would be grateful if you could share the reported pIC50 for O=C(Nc1ccc(N2CCN(C(=O)c3ccccc3F)CC2)cc1)c1ccccn1 .
< 4.18

###

- assayed-target: Interleukin-8 (Homo sapiens)
- run-description: inhibitors of NFkB activation in CF airway cells, SAR follow-up, KKLEB cells, panel, IL8 HTRF, NFkB-GFP (AID 651592)
- conditions: PAF/TNFa-induced NFkB-GFP / IL8 HTRF, IL8, PAF-induced, run 5
measurement-name: IC50 (µM)

I: CCOc1ccc(NCc2cc3c(C)nn(-c4ccccc4)c3[nH]c2=O)cc1
II: Cc1ccc(CNCc2cc3c(C(C)(C)C)nn(-c4ccccc4)c3[nH]c2=O)cc1
# query: argmin of IC50 over I and II Indicate which entry you chose by stating its label.
I
(I: 8.32 µM, II: 17 µM)

###

- run-description: inhibitors of NFkB activation in CF airway cells, SAR follow-up, KKLEB cells, panel, IL8 HTRF, NFkB-GFP (AID 651592);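 further: immortalized cystic fibrosis airway epithelial KKLEB cells with an NF-kB GFP reporter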
- conditions: PAF/TNFa-induced NFkB-GFP / IL8 HTRF, CF-PAF assay, run 6
measurement-name: IC50 (µM)

Answered cases to consult:
{"columns": ["smiles-entry", "IC50 [µM]"],
 "data": [
  ["O=C(Nc1ccc(N2CCN(C(=O)c3ccccc3Cl)CC2)cc1)c1ccncc1", 29],
  ["O=C(Nc1ccc(N2CCN(C(=O)c3ccccc3Cl)CC2)cc1)c1cccnc1", 7.26],
  ["Cc1ccc(CNCc2cc3c(C(C)(C)C)nn(-c4ccccc4)c3[nH]c2=O)cc1", 30.1]
]}

1: Cc1ccc(NCc2cc3c(C(C)(C)C)nn(-c4ccccc4)c3[nH]c2=O)cc1
2: CCOc1ccc(NCc2cc3c(C)nn(-c4ccccc4)c3[nH]c2=O)cc1
3: O=C(Nc1ccc(N2CCN(C(=O)c3ccccc3Cl)CC2)cc1)c1cncc(Br)c1
Please give the order of these compounds when sorted by IC50, largest value leading. Please express your ranking as an ordered list of the labels.
1, 2, 3

###

- assayed-target: Interleukin-8 (Homo sapiens) (UniProt P10145)
- Sequence (P10145 whole entry, looked up): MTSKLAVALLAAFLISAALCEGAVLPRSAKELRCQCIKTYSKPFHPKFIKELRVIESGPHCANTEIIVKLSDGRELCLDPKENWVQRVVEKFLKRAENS
- run-description: inhibitors of NFkB activation in CF airway cells, SAR follow-up, KKLEB cells, panel, IL8 HTRF, NFkB-GFP (AID 651592);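 further: immortalized cystic fibrosis airway epithelial KKLEB cells with an NF-kB GFP reporter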
- conditions: PAF/TNFa-induced NFkB-GFP / IL8 HTRF, IL8, PAF-induced, run 2
// reported IC50 for each item listed

{"columns": ["smiles-entry", "assayed-target", "measured"],
 "data": [
  ["O=C(Nc1ccc(N2CCN(C(=O)c3ccc(F)cc3)CC2)cc1)c1ccncc1", "Interleukin-8 (Homo sapiens) (UniProt P10145)", "> 66 µM"]
]}

# IC50 lookup, item O=C(Nc1ccc(N2CCN(C(=O)c3ccccc3Cl)CC2)cc1)c1cccnc1
> 66 µM

Follow-up entry: O=C(Nc1ccc(N2CCN(C(=O)c3ccccc3F)CC2)cc1)c1ccncc1
> 66 µM

And for O=C(Nc1ccc(N2CCN(C(=O)c3ccc(F)cc3)CC2)cc1)c1cc(Br)cc(Br)c1 ?
> 66 µM

Entry CCOc1ccc(NCc2cc3c(C(C)(C)C)nn(-c4ccccc4)c3[nH]c2=O)cc1 please
3.3 µM

Now the same for O=C(Nc1ccc(N2CCN(C(=O)c3ccccc3)CC2)cc1)c1cccnc1
> 66 µM

###

- assayed-target: UniProt:P10145
- run-description: inhibitors of NFkB activation in CF airway cells, SAR follow-up, KKLEB cells, panel, IL8 HTRF, NFkB-GFP (AID 651592);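 further: immortalized cystic fibrosis airway epithelial KKLEB cells with an NF-kB GFP reporter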
- conditions: PAF/TNFa-induced NFkB-GFP / IL8 HTRF, IL8, PAF-induced, run 4
pIC50: −log10 of the molar value.
Collected pIC50 values appear next to each entry.

{"columns": ["smiles-entry", "pIC50"],
 "data": [
  ["O=C(Nc1ccc(N2CCN(C(=O)c3ccccc3F)CC2)cc1)c1cccc(Br)c1", "< 4.18"],
  ["O=C(Nc1ccc(N2CCN(C(=O)c3ccccc3F)CC2)cc1)c1cccnc1", "< 4.18"],
  ["O=C(Nc1ccc(N2CCN(C(=O)c3ccccc3)CC2)cc1)c1ccccc1", "< 4.18"],
  ["O=C(Nc1ccc(N2CCN(C(=O)c3ccc(F)cc3)CC2)cc1)c1cncc(Br)c1", 5.69],
  ["CCOc1ccc(NCc2cc3c(C(C)(C)C)nn(-c4ccccc4)c3[nH]c2=O)cc1", 5.35]
]}

Entry under review: O=C(Nc1ccc(N2CCN(C(=O)c3ccc(F)cc3)CC2)cc1)c1ccccc1 . Reported pIC50?
< 4.18

Another: O=C(Nc1ccc(N2CCN(C(=O)c3ccccc3Cl)CC2)cc1)c1ccccc1
> 5.00
